- ASSAYED_TARGET: GppNp-loaded HIS-KRAS(G12D, aa 1-169) and cRAF RBD (Homo sapiens, UniProt P01116, G12D)
- Construct: GppNp-loaded HIS-KRAS(G12D, aa 1-169)
- Sequence (P01116 1-169 isoform P01116-2 G12D): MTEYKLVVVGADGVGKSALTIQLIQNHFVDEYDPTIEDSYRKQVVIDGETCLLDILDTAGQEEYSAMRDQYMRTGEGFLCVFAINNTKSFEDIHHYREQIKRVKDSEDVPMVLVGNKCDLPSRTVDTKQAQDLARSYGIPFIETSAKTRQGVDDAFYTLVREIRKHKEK
- PROTOCOL: GTP-KRAS and cRAF interaction assay (HTRF)
- CONDITION: 2 hours at 25° C.
IC50 values, listed per item
All answers are understood in µM, so give the number only.

// solved cases for IC50 follow
[
  {
    "MOLECULE": "C#Cc1cccc2cc(O)cc(-c3c(F)cc4c(N5CC6CCC(C5)N6)nc(OCC5(CN6CC(OC)C6)CC5)nc4c3F)c12",
    "IC50 [µM]": 0.0745
  },
  {
    "MOLECULE": "C#Cc1cccc2cc(O)cc(-c3ccc4c(N5CC6CCC(C5)N6)nc(OCC5(CN6CC7CC6CO7)CC5)nc4c3F)c12 (stereo not shown)",
    "IC50 [µM]": 0.062
  },
  {
    "MOLECULE": "C#Cc1cccc2cc(O)cc(-c3c(F)cc4c(N5CC6CCC(C5)N6)nc(OCC5(CN6CC7(CCOCC7)C6)CC5)nc4c3F)c12",
    "IC50 [µM]": 0.0402
  }
]

Consider the additional molecule presented here.
Entry C#Cc1cccc2cc(O)cc(-c3c(F)cc4c(N5CC6CCC(C5)N6)nc(OCC5(CN6Cc7cccnc7C6)CC5)nc4c3F)c12 — recorded IC50 = 0.273

----------
- ASSAYED_TARGET: GDP-loaded HIS-KRAS(G12D, aa 1-169) (Homo sapiens, UniProt P01116, G12D)
- Construct: GDP-loaded HIS-KRAS(G12D, aa 1-169)
- Sequence (P01116 1-169 isoform P01116-2 G12D): as above
- PROTOCOL: SOS1 catalyzed nucleotide exchange assay (TR-FRET)
- CONDITION: 4 hours at 25° C.
# note: exactly 10 nM is not below, so it is not fulfilled; use fulfilled for IC50 strictly under it

The following compounds have reported results that may help.
[
  {
    "COMPOUND": "C#Cc1cccc2cc(O)cc(-c3c(F)cc4c(N5CC6CCC(C5)N6)nc(OCC5(CN6CCC7(CCCO7)C6)CC5)nc4c3F)c12 (stereo not drawn)",
    "CLASS": "fulfilled"
  },
  {
    "COMPOUND": "C#Cc1cccc2cc(O)cc(-c3c(F)cc4c(N5CC6CCC(C5)N6)nc(OCC5(CN6CCc7cccnc7C6)CC5)nc4c3F)c12",
    "CLASS": "fulfilled"
  },
  {
    "COMPOUND": "C#Cc1cccc2cc(O)cc(-c3ccc4c(N5CC6CCC(C5)N6)nc(OCC5(CN6CC7CCC(C6)O7)CC5)nc4c3F)c12",
    "CLASS": "not fulfilled"
  },
  {
    "COMPOUND": "C#Cc1cccc2cc(O)cc(-c3c(F)cc4c(N5CC6CCC(C5)N6)nc(OCC5(CN6CC7CC6CO7)CC5)nc4c3F)c12 (single isomer, unassigned) [Compound 13A]",
    "CLASS": "not fulfilled"
  },
  {
    "COMPOUND": "C#Cc1cccc2cc(O)cc(-c3c(F)cc4c(N5CC6CCC(C5)N6)nc(OCC5(CN6CCOC7(CCC7)C6)CC5)nc4c3F)c12",
    "CLASS": "not fulfilled"
  },
  {
    "COMPOUND": "C#Cc1c(F)ccc2cc(O)cc(-c3c(C#N)cc4c(N5CC6CCC(C5)N6)nc(OCC5(CN6C[C@@H]7C[C@H]6CO7)CC5)nc4c3F)c12",
    "CLASS": "fulfilled"
  },
  {
    "COMPOUND": "C#Cc1cccc2cc(O)cc(-c3c(F)cc4c(N5CC6CCC(C5)N6)nc(OCC5(CN6C[C@H]7C[C@@H]6CO7)CC5)nc4c3F)c12",
    "CLASS": "fulfilled"
  },
  {
    "COMPOUND": "C#Cc1cccc2cc(O)cc(-c3c(F)cc4c(N5CC6CCC(C5)N6)nc(OCC5(CN6CCOC7(CC7)C6)CC5)nc4c3F)c12 (single isomer, unassigned) [Compound 2A]",
    "CLASS": "not fulfilled"
  },
  {
    "COMPOUND": "C#Cc1cccc2cc(O)cc(-c3ccc4c(N5CC6CCC(C5)N6)nc(OCC5(CN6C7CCC6COC7)CC5)nc4c3F)c12",
    "CLASS": "not fulfilled"
  },
  {
    "COMPOUND": "C#Cc1cccc2cc(O)cc(-c3ccc4c(N5CC6CCC(C5)N6)nc(OCC5(CN6CC7CC6CO7)CC5)nc4c3F)c12 (stereo not drawn)",
    "CLASS": "fulfilled"
  }
]

Query :: Lab log: compare recorded IC50 with 10 nM; is it strictly lower for C#Cc1cccc2cc(O)cc(-c3c(F)cc4c(N5CC6CCC(C5)N6)nc(OCC5(CN6CC7(CCCO7)C6)CC5)nc4c3F)c12 ?
Result :: not fulfilled

Query :: Lab log: compare recorded IC50 with 10 nM; is it strictly lower for C#Cc1cccc2cc(O)cc(-c3c(F)cc4c(N5CC6CCC(C5)N6)nc(OCC5(CN6CCC7(CCO7)CC6)CC5)nc4c3F)c12 ?
Result :: not fulfilled
